The following molecules each carry a recorded MIC for Trichophyton rubrum.

{"MOLECULE": "Cl.Clc1cc(Cl)c(NN=C2c3ccccc3OCCC2n2ccnc2)c(Cl)c1 (stereo not shown) [3 (i)]", "MEASUREMENT_UNITS": "µg/mL", "MIC": 6.2}
{"MOLECULE": "Clc1cc(Cl)c(NN=C2c3ccccc3CCCC2n2ccnc2)c(Cl)c1 (stereo not shown) [3 (d)]", "MEASUREMENT_UNITS": "µg/mL", "MIC": 1.5}
{"MOLECULE": "Clc1cc(Cl)c(NN=C2c3ccsc3CCCC2n2ccnc2)c(Cl)c1 (stereo not shown) [3 (l)]", "MEASUREMENT_UNITS": "µg/mL", "MIC": 12.5}
{"MOLECULE": "Clc1ccc(COC(Cn2ccnc2)c2ccc(Cl)cc2Cl)c(Cl)c1 (stereo not shown) [Miconazole, reference compound]", "MEASUREMENT_UNITS": "µg/mL", "MIC": 3.1}

---

# MIC per record follows
- Test system: Bacterioides fragilis
- METHOD_NOTES: in vitro anti-anaerobic assay, minimum inhibitory concentration
- Type: cell-based, Bacterioides fragilis (ATCC 23745)
- CONDITION_DESCRIPTION: 24 h, ATCC 23745, 24 hours at 37° C., range of three runs, read-out: Minimum Inhibitory Concentrations, Bacterioides fragilis
Structures can show the parent of a compound that is named as a salt.

{"COMPOUND": "Clc1ccc(NN=C2c3sccc3CCCC2n2ccnc2)c(Cl)c1 (stereo not drawn)", "TARGET_OF_ASSAY": "Bacterioides fragilis", "MIC": "0.75 to 1 µg/mL"}
{"COMPOUND": "Clc1ccc(NN=C2c3ccccc3CCCC2n2ccnc2)c(Cl)c1 (stereo not drawn)", "TARGET_OF_ASSAY": "Bacterioides fragilis", "MIC": "1 to 2.5 µg/mL"}
{"COMPOUND": "Clc1cc(Cl)c(NN=C2c3ccc(Cl)cc3CCCC2n2ccnc2)c(Cl)c1 (stereo not drawn) [3 (b), hydrochloride]", "TARGET_OF_ASSAY": "Bacterioides fragilis", "MIC": "0.75 to 1 µg/mL"}
{"COMPOUND": "Clc1ccc(NN=C2c3ccccc3CCCCC2n2ccnc2)c(Cl)c1 (stereo not drawn) [1 (d), hydrochloride]", "TARGET_OF_ASSAY": "Bacterioides fragilis", "MIC": "1 to 2.5 µg/mL"}
{"COMPOUND": "Cc1ncc([N+](=O)[O-])n1CCO [Metronidazole, metronidazole, reference compound]", "TARGET_OF_ASSAY": "Bacterioides fragilis", "MIC": "0.5 µg/mL"}
{"COMPOUND": "Clc1cc(Cl)c(NN=C2c3ccccc3CCCCC2n2ccnc2)c(Cl)c1 (stereo not drawn) [3 (c), hydrochloride]", "TARGET_OF_ASSAY": "Bacterioides fragilis", "MIC": "2.5 µg/mL"}

---

# MIC per record follows
- Tested on: Candida albicans
- METHOD_NOTES: in vitro anti-fungal assay, minimum inhibitory concentration
- Format: cell-based
- CONDITION_DESCRIPTION: strain 3153, aerobic, 37° C., in duplicate, read-out: Minimum Inhibitory Concentrations, C.albicans 3153
Structures can show the parent of a compound that is named as a salt.

{"MOLECULE": "Cl.Clc1cc(Cl)c(NN=C2c3ccccc3OCCC2n2ccnc2)c(Cl)c1 (stereo not shown) [3 (i)]", "TARGET_OF_ASSAY": "Candida albicans", "MIC": "12.5 µg/mL"}
{"MOLECULE": "Clc1cc(Cl)c(NN=C2c3ccccc3CCCC2n2ccnc2)c(Cl)c1 (stereo not shown) [3 (d)]", "TARGET_OF_ASSAY": "Candida albicans", "MIC": "12.5 µg/mL"}
{"MOLECULE": "Clc1cc(Cl)c(NN=C2c3ccsc3CCCC2n2ccnc2)c(Cl)c1 (stereo not shown) [3 (l)]", "TARGET_OF_ASSAY": "Candida albicans", "MIC": "12.5 µg/mL"}
{"MOLECULE": "Clc1cc(Cl)c(NN=C2c3ccc(Cl)cc3CCCC2n2ccnc2)c(Cl)c1 (stereo not shown) [3 (b), hydrochloride]", "TARGET_OF_ASSAY": "Candida albicans", "MIC": "6.2 µg/mL"}

---

# MIC per record follows
- Tested on: Propionibacterium acnes
Where a name gives a salt, the structure may show the parent alone.

{"COMPOUND": "Cc1ncc([N+](=O)[O-])n1CCO [Metronidazole, metronidazole, reference compound]", "MEASUREMENT_UNITS": "µg/mL", "READOUT_QUALIFIER": ">", "MIC": 100}
{"COMPOUND": "Clc1ccc(NN=C2c3ccccc3CCCC2n2ccnc2)c(Cl)c1 (stereo not drawn) [1 (a)]", "MEASUREMENT_UNITS": "µg/mL", "READOUT_QUALIFIER": "=", "MIC": 2.5}
{"COMPOUND": "Clc1cc(Cl)c(NN=C2c3ccc(Cl)cc3CCCC2n2ccnc2)c(Cl)c1 (stereo not drawn) [3 (b), hydrochloride]", "MEASUREMENT_UNITS": "µg/mL", "READOUT_QUALIFIER": "=", "MIC": 5}
{"COMPOUND": "Clc1ccc(NN=C2c3sccc3CCCC2n2ccnc2)c(Cl)c1 (stereo not drawn) [1 (j)]", "MEASUREMENT_UNITS": "µg/mL", "READOUT_QUALIFIER": "=", "MIC": 5}
{"COMPOUND": "Clc1cc(Cl)c(NN=C2c3ccccc3CCCCC2n2ccnc2)c(Cl)c1 (stereo not drawn) [3 (c), hydrochloride]", "MEASUREMENT_UNITS": "µg/mL", "READOUT_QUALIFIER": "=", "MIC": 2.5}

Recorded values, source patent US4377697A.
